# Test system: RAW264.7
# experiment description: Antiinflammatory activity in mouse RAW264.7 cells assessed as inhibition of LPS-induced nitric oxide production treated 2 hrs before LPS challenge measured after 18 hrs by Griess reaction method
# Format: functional, cell-based
property: IC50
Answer with the number, then the unit.

Under RAW264.7, report IC50 for CC1=C(CCc2ccoc2)[C@@]2(C)CC[C@@H](O)C(C)(C)[C@@H]2CC1=O
27 µM
